Reported inhibition at 1.25 µM is given for each of the following compounds.
Target: EGFR kinase (Homo sapiens, UniProt P00533)
Sequence (P00533 25-1210): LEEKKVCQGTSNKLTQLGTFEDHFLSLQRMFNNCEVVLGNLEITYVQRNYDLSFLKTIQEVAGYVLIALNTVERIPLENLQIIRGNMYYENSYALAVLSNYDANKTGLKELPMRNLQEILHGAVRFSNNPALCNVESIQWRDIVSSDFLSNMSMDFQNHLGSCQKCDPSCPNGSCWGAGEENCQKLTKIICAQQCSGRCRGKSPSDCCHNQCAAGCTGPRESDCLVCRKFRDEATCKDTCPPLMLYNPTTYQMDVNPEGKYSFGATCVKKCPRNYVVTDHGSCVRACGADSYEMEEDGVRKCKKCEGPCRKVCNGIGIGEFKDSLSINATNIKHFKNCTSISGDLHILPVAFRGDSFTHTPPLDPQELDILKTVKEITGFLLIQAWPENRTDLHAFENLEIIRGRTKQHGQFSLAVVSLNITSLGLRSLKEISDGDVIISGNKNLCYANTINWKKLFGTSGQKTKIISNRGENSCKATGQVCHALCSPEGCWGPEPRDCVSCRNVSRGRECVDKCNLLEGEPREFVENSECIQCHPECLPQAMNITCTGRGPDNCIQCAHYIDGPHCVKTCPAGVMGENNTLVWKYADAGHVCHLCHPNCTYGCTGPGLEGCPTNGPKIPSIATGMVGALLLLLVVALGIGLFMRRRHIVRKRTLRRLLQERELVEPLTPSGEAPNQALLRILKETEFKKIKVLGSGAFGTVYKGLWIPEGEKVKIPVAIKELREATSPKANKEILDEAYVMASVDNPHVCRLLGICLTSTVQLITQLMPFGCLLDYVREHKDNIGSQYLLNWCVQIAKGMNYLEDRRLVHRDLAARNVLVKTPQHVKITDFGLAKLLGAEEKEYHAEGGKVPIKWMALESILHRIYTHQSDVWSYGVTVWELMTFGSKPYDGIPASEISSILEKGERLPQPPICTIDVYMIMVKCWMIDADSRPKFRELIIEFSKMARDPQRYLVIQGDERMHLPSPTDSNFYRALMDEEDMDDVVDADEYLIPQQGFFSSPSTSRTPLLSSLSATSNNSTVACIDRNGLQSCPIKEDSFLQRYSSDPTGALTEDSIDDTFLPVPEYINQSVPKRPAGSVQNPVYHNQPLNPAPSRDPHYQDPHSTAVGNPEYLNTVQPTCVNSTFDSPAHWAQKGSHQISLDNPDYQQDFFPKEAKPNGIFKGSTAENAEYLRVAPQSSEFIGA
Assay: ELISA-based EGFR kinase inhibition assay
Details: read-out: % Inhibition EGFR, 1.25 μM

# compound, inhibition at 1.25 µM / %
records = [
    ("Cc1ccc(C2=NN(c3ccccc3)C(c3ccc(OC4CCCC4)cc3)C2)cc1 (stereo not shown)", 47.3),
    ("CCN1CCC(=O)C(=Cc2ccc(OC3CCCC3)cc2)C1", 61.2),
    ("CCOC(=O)C1=C(C)OC(N)=C(C#N)C1c1ccc(OC2CCCC2)cc1 (stereo not shown)", 49.7),
    ("CN1CCC(=O)C(=Cc2ccc(OC3CCCC3)cc2)C1", 34.6),
]

* * *

Molecular target: EGFR kinase (Homo sapiens)
Experiment: ELISA-based EGFR kinase inhibition assay
Details: read-out: % Inhibition EGFR, 5.0 μM

# compound, inhibition at 5 µM (%)
data = [
    ("CCN1CCC(=O)C(=Cc2ccc(OC3CCCC3)cc2)C1", 76.7),
    ("Cc1ccc(C2=NN(c3ccccc3)C(c3ccc(OC4CCCC4)cc3)C2)cc1 (stereo not shown)", 60.7),
    ("CN1CCC(=O)C(=Cc2ccc(OC3CCCC3)cc2)C1", 50.3),
    ("CCOC(=O)C1=C(C)OC(N)=C(C#N)C1c1ccc(OC2CCCC2)cc1 (stereo not shown)", 66),
]

* * *

Test system: MCF-7 cells
Assay: MTT antitumour assay, MCF-7
Assay type: cell-based
Conditions: MCF7, human breast adenocarcinoma cell line, mean ± SD, n = 3
pIC50: −log10 of the molar value.
Form field: pIC50 (one value per entry).

# compound, qualifyingSign, pIC50
data = [
    ("CN1CCC(=O)C(=Cc2ccc(OC3CCCC3)cc2)C1", "=", 4.74),
    ("Cc1ccc(C2=NN(c3ccccc3)C(c3ccc(OC4CCCC4)cc3)C2)cc1 (stereo not drawn)", "=", 5.25),
    ("O=C1CCCC1=Cc1ccc(OC2CCCC2)cc1", "<", 4.00),
    ("O=c1[nH]cc(F)c(=O)[nH]1 [5-FU, 5-fluorouracil, reference compound]", "=", 5.27),
    ("Cc1ccc(-c2cc(-c3ccc(OC4CCCC4)cc3)c(C#N)c(=O)[nH]2)cc1", "=", 4.15),
    ("CCOC(=O)C1=C(C)OC(N)=C(C#N)C1c1ccc(OC2CCCC2)cc1 (stereo not drawn)", "=", 5.12),
    ("O=C(O)c1cc(C=Cc2ccc(OC3CCCC3)cc2)nc2ccc(Br)cc12 [12a]", "=", 4.06),
    ("O=C1CCCCCC1=Cc1ccc(OC2CCCC2)cc1", "=", 4.19),
    ("Cc1ccc(C(=O)C=Cc2ccc(OC3CCCC3)cc2)cc1", "=", 4.44),
    ("CCN1CCC(=O)C(=Cc2ccc(OC3CCCC3)cc2)C1", "=", 4.86),
    ("Cc1ccc(C2=NNC(c3ccc(OC4CCCC4)cc3)C2)cc1 (stereo not drawn)", "=", 4.53),
    ("CC(=O)C=Cc1ccc(OC2CCCC2)cc1", "=", 4.39),
]

* * *

The following compounds are listed with their measured inhibition at 10 µM values.
Molecular target: EGFR kinase (Homo sapiens, UniProt P00533)
Test: ELISA-based EGFR kinase inhibition assay
Details: read-out: % Inhibition EGFR, 10.0 μM
readoutKind: inhibition at 10 µM (%)

# compound, quantitativeResult
measured = [
    ("CN1CCC(=O)C(=Cc2ccc(OC3CCCC3)cc2)C1 [6a]", 57.7),
    ("Cc1ccc(C2=NN(c3ccccc3)C(c3ccc(OC4CCCC4)cc3)C2)cc1 (stereo not shown) [8b]", 64.9),
    ("CCOC(=O)C1=C(C)OC(N)=C(C#N)C1c1ccc(OC2CCCC2)cc1 (stereo not shown) [compound 7]", 72.8),
    ("CCN1CCC(=O)C(=Cc2ccc(OC3CCCC3)cc2)C1 [6b]", 83.7),
]
